SYSTEM: human aldose reductase (Homo sapiens, UniProt P15121)
Construct: His-tag (cleaved yes); made in house; host or cells: E. coli BL21
MEASUREMENT PROTOCOL: Inhibition of recombinant human aldose reductase, DL-glyceraldehyde reduction, NADPH at 340 nm
Format: biochemical
MEASURED METRIC: inhibitory effect on AR activity (in words)

Some solved cases for reference:
| MOLECULAR STRING | OBSERVED RESULT |
| --- | --- |
| Cc1ccc(C)c(OCCCC(C)(C)C(=O)O)c1 | inhibitory effect |
| CC(=O)[C@]1(O)Cc2c(O)c3c(c(O)c2[C@@H](O[C@H]2C[C@H](N)[C@H](O)[C@H](C)O2)C1)C(=O)c1ccccc1C3=O | inhibitory effects |
| COc1cccc2c1C(=O)c1c(O)c3c(c(O)c1C2=O)C[C@@](O)(C(C)=O)C[C@@H]3O[C@H]1C[C@H](N)[C@H](O)[C@H](C)O1 | inhibitory effects |
| O=C(O)Cc1nn(Cc2nc3cc(C(F)(F)F)ccc3s2)c(=O)c2ccccc12 | inhibitory effects |
| CC(C)(Oc1ccc(Cl)cc1)C(=O)O | inhibitory effect |

Next item in the queue.
I am curious: what inhibitory effect on AR activity (in words) value has been reported for O=C1NC(=O)[C@@]2(CCOc3ccc(F)cc32)N1 ?
inhibitory effects

====

SYSTEM: human aldose reductase (Homo sapiens, UniProt P15121)
Construct: His-tag (cleaved yes); made in house; host or cells: E. coli BL21
MEASUREMENT PROTOCOL: Inhibition of recombinant human aldose reductase, DL-glyceraldehyde reduction, NADPH at 340 nm
Format: biochemical
MEASUREMENT PARAMETERS: Table I; recombinant human AR, reduction of DL-glyceraldehyde; read-out: IC50
MEASURED METRIC: IC50 (µM)
Write the value in µM as a bare number.

So what IC50 did Cc1ccc(C)c(OCCCC(C)(C)C(=O)O)c1 [Gemfibrozil] get with human aldose reductase (Homo sapiens, UniProt P15121)?
6.5

====

SYSTEM: human aldose reductase (Homo sapiens, UniProt P15121)
Construct: His-tag (cleaved yes); made in house; host or cells: E. coli BL21
MEASUREMENT PROTOCOL: Inhibition of recombinant human aldose reductase, DL-glyceraldehyde reduction, NADPH at 340 nm
Type: biochemical
MEASUREMENT PARAMETERS: reduction of glyceraldehyde; read-out: Ki value
pKi: −log10 of the molar value.
MEASURED METRIC: pKi

I. CC(C)(Oc1ccc(Cl)cc1)C(=O)O
II. Cc1ccc(C)c(OCCCC(C)(C)C(=O)O)c1
Determine, for I and II , which has the greater value of pKi. Output the label that corresponds to your choice.
I
